// data source = the supplement of paper PMC10126150

System: ATP;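 also: ATP exposure 15 min at 22 °C before imaging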
Experiment: switch fluorescence ratio, 500 uM ATP over buffer (Cy3 cluster intensity, sum of 5 cycles each) (fold (ratio)); higher = stronger signal-on switching upon ATP binding; sequences stand for … in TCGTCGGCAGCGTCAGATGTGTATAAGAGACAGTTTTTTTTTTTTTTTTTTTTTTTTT…TC
Settings: aptamer strand: ATP DNA aptamer (quencher-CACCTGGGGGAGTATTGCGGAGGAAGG + anchor), 100 nM annealed; ATP concentration: 500 uM

>  <biopolymer_sequence>
TTGAGGGACT

>  <subject_of_test>
ATP;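 also: ATP exposure 15 min at 22 °C before imaging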

>  <switch fluorescence ratio>
1.01

$$$$
>  <biopolymer_sequence>
CAGGCTTTGC

>  <subject_of_test>
ATP;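 also: ATP exposure 15 min at 22 °C before imaging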

>  <switch fluorescence ratio>
0.992

$$$$
>  <biopolymer_sequence>
TAAGGAAGGG

>  <subject_of_test>
ATP;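 also: ATP exposure 15 min at 22 °C before imaging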

>  <switch fluorescence ratio>
1

$$$$
>  <biopolymer_sequence>
GGGGGTACAC

>  <subject_of_test>
ATP;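 also: ATP exposure 15 min at 22 °C before imaging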

>  <switch fluorescence ratio>
1.01

$$$$
>  <biopolymer_sequence>
TTATTTTCGT

>  <subject_of_test>
ATP;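 also: ATP exposure 15 min at 22 °C before imaging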

>  <switch fluorescence ratio>
0.973

$$$$
>  <biopolymer_sequence>
TATCAGTCGT

>  <subject_of_test>
ATP;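 also: ATP exposure 15 min at 22 °C before imaging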

>  <switch fluorescence ratio>
0.988

$$$$
>  <biopolymer_sequence>
GATAGGCGTG

>  <subject_of_test>
ATP;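 also: ATP exposure 15 min at 22 °C before imaging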

>  <switch fluorescence ratio>
1.01

$$$$
>  <biopolymer_sequence>
CTTTCTTTTT

>  <subject_of_test>
ATP;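 also: ATP exposure 15 min at 22 °C before imaging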

>  <switch fluorescence ratio>
0.992

$$$$
>  <biopolymer_sequence>
GACTATGAGA

>  <subject_of_test>
ATP;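 also: ATP exposure 15 min at 22 °C before imaging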

>  <switch fluorescence ratio>
0.994

$$$$
>  <biopolymer_sequence>
CATGTGTGGT

>  <subject_of_test>
ATP;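 also: ATP exposure 15 min at 22 °C before imaging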

>  <switch fluorescence ratio>
1

$$$$

----------
System: ATP;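 also: ATP exposure 15 min at 22 °C before imaging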
Experiment: switch fluorescence ratio, 500 uM ATP over buffer (Cy3 cluster intensity, sum of 5 cycles each) (fold (ratio)); higher = stronger signal-on switching upon ATP binding; sequences stand for … in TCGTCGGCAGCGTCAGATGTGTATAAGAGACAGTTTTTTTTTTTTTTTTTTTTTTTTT…TC
Settings: aptamer strand: ATP DNA aptamer (quencher-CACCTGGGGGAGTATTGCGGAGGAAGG + anchor), 100 nM annealed; ATP concentration: 500 uM
measure_name: switch fluorescence ratio

>  <biopolymer_sequence>
TTTCATTAGT

>  <measure_name>
switch fluorescence ratio

>  <endpoint_value>
0.99

$$$$
>  <biopolymer_sequence>
TGGTGCAGCT

>  <measure_name>
switch fluorescence ratio

>  <endpoint_value>
1

$$$$
>  <biopolymer_sequence>
CGTGGGGATA

>  <measure_name>
switch fluorescence ratio

>  <endpoint_value>
1.03

$$$$
>  <biopolymer_sequence>
GATTAGGAGT

>  <measure_name>
switch fluorescence ratio

>  <endpoint_value>
0.985

$$$$
>  <biopolymer_sequence>
TATATGCGCG

>  <measure_name>
switch fluorescence ratio

>  <endpoint_value>
0.994

$$$$
>  <biopolymer_sequence>
TTAAGGGGCA

>  <measure_name>
switch fluorescence ratio

>  <endpoint_value>
1.02

$$$$
>  <biopolymer_sequence>
TTGGGGAGTT

>  <measure_name>
switch fluorescence ratio

>  <endpoint_value>
1.01

$$$$
>  <biopolymer_sequence>
GTCCGGGGTT

>  <measure_name>
switch fluorescence ratio

>  <endpoint_value>
0.994

$$$$
>  <biopolymer_sequence>
TCTCTTATGA

>  <measure_name>
switch fluorescence ratio

>  <endpoint_value>
0.997

$$$$

----------
System: ATP;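 also: ATP exposure 15 min at 22 °C before imaging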
Assay: switch fluorescence ratio, 500 uM ATP over buffer (Cy3 cluster intensity, sum of 5 cycles each) (fold (ratio)); higher = stronger signal-on switching upon ATP binding; sequences stand for … in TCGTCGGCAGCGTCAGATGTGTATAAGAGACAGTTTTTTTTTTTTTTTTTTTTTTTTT…TC
Details: aptamer strand: ATP DNA aptamer (quencher-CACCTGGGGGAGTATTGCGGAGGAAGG + anchor), 100 nM annealed; ATP concentration: 500 uM
Would you please tag the item MET when its switch fluorescence ratio is 1 or above, and NOT MET when it is below?

>  <biopolymer_sequence>
AAGTGGCCGG

>  <category_label>
NOT MET

$$$$
>  <biopolymer_sequence>
ATCTCGCGCA

>  <category_label>
MET

$$$$
>  <biopolymer_sequence>
TTCAAAATAG

>  <category_label>
MET

$$$$
>  <biopolymer_sequence>
TTCGGCTGCA

>  <category_label>
MET

$$$$
>  <biopolymer_sequence>
CCAGGGGGGC

>  <category_label>
MET

$$$$
>  <biopolymer_sequence>
AAGCGCAGAC

>  <category_label>
MET

$$$$
>  <biopolymer_sequence>
AAATAGGTG

>  <category_label>
MET

$$$$
>  <biopolymer_sequence>
GATCACTATA

>  <category_label>
MET

$$$$
>  <biopolymer_sequence>
ATACTCCGGA

>  <category_label>
MET

$$$$
>  <biopolymer_sequence>
CAAGTGGCGG

>  <category_label>
NOT MET

$$$$
>  <biopolymer_sequence>
TCTGTAGTGG

>  <category_label>
MET

$$$$
>  <biopolymer_sequence>
ATTTAGTTCG

>  <category_label>
NOT MET

$$$$
>  <biopolymer_sequence>
TGGGGTAATC

>  <category_label>
MET

$$$$
>  <biopolymer_sequence>
GCAAGTCTGA

>  <category_label>
MET

$$$$
>  <biopolymer_sequence>
GCTTTTGCAC

>  <category_label>
MET

$$$$

----------
# switch fluorescence ratio annotations
System: ATP;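 also: ATP exposure 15 min at 22 °C before imaging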
Assay: switch fluorescence ratio, 500 uM ATP over buffer (Cy3 cluster intensity, sum of 5 cycles each) (fold (ratio)); higher = stronger signal-on switching upon ATP binding; sequences stand for … in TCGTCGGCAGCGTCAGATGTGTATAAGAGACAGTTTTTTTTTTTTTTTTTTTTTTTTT…TC
Details: aptamer strand: ATP DNA aptamer (quencher-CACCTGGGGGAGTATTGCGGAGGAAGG + anchor), 100 nM annealed; ATP concentration: 500 uM
measure_name: switch fluorescence ratio

>  <biopolymer_sequence>
ATTGTTTATT

>  <subject_of_test>
ATP;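 also: ATP exposure 15 min at 22 °C before imaging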

>  <endpoint_value>
0.998

$$$$
>  <biopolymer_sequence>
AGAATTGAGA

>  <subject_of_test>
ATP;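 also: ATP exposure 15 min at 22 °C before imaging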

>  <endpoint_value>
0.971

$$$$
>  <biopolymer_sequence>
TTTCGGACAA

>  <subject_of_test>
ATP;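 also: ATP exposure 15 min at 22 °C before imaging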

>  <endpoint_value>
1.46

$$$$
>  <biopolymer_sequence>
GTTTTTTATC

>  <subject_of_test>
ATP;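 also: ATP exposure 15 min at 22 °C before imaging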

>  <endpoint_value>
1

$$$$
>  <biopolymer_sequence>
TTTAACTTTG

>  <subject_of_test>
ATP;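 also: ATP exposure 15 min at 22 °C before imaging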

>  <endpoint_value>
1.01

$$$$
>  <biopolymer_sequence>
TCGAGTGGAG

>  <subject_of_test>
ATP;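 also: ATP exposure 15 min at 22 °C before imaging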

>  <endpoint_value>
1.03

$$$$
>  <biopolymer_sequence>
GCTATCTTAT

>  <subject_of_test>
ATP;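 also: ATP exposure 15 min at 22 °C before imaging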

>  <endpoint_value>
0.98

$$$$
>  <biopolymer_sequence>
GGGACAATGA

>  <subject_of_test>
ATP;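 also: ATP exposure 15 min at 22 °C before imaging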

>  <endpoint_value>
1

$$$$
>  <biopolymer_sequence>
CAATTTTCGG

>  <subject_of_test>
ATP;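 also: ATP exposure 15 min at 22 °C before imaging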

>  <endpoint_value>
0.989

$$$$
>  <biopolymer_sequence>
GCAAATGGGG

>  <subject_of_test>
ATP;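 also: ATP exposure 15 min at 22 °C before imaging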

>  <endpoint_value>
1.02

$$$$
>  <biopolymer_sequence>
TGGGGCTAAG

>  <subject_of_test>
ATP;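 also: ATP exposure 15 min at 22 °C before imaging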

>  <endpoint_value>
1.01

$$$$
>  <biopolymer_sequence>
TTTCCAATCT

>  <subject_of_test>
ATP;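 also: ATP exposure 15 min at 22 °C before imaging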

>  <endpoint_value>
1.08

$$$$
>  <biopolymer_sequence>
TGGCGGGGTA

>  <subject_of_test>
ATP;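 also: ATP exposure 15 min at 22 °C before imaging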

>  <endpoint_value>
1.02

$$$$
>  <biopolymer_sequence>
GTGGTACAGG

>  <subject_of_test>
ATP;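 also: ATP exposure 15 min at 22 °C before imaging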

>  <endpoint_value>
1.02

$$$$
>  <biopolymer_sequence>
TTTAGGTGTT

>  <subject_of_test>
ATP;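 also: ATP exposure 15 min at 22 °C before imaging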

>  <endpoint_value>
1.05

$$$$
>  <biopolymer_sequence>
TTGGGGAATG

>  <subject_of_test>
ATP;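 also: ATP exposure 15 min at 22 °C before imaging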

>  <endpoint_value>
0.999

$$$$
>  <biopolymer_sequence>
AATAAAAGGA

>  <subject_of_test>
ATP;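 also: ATP exposure 15 min at 22 °C before imaging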

>  <endpoint_value>
0.997

$$$$
>  <biopolymer_sequence>
ACCATCCGGC

>  <subject_of_test>
ATP;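 also: ATP exposure 15 min at 22 °C before imaging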

>  <endpoint_value>
1.12

$$$$
>  <biopolymer_sequence>
TCAGTCTTTC

>  <subject_of_test>
ATP;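 also: ATP exposure 15 min at 22 °C before imaging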

>  <endpoint_value>
1.02

$$$$

----------
System: ATP;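 also: ATP exposure 15 min at 22 °C before imaging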
Experiment: switch fluorescence ratio, 500 uM ATP over buffer (Cy3 cluster intensity, sum of 5 cycles each) (fold (ratio)); higher = stronger signal-on switching upon ATP binding; sequences stand for … in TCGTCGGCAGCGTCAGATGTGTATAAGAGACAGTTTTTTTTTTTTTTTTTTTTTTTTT…TC
Conditions: aptamer strand: ATP DNA aptamer (quencher-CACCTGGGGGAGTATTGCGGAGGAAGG + anchor), 100 nM annealed; ATP concentration: 500 uM
In this section we review reported switch fluorescence ratio values for a set of sequences.

>  <biopolymer_sequence>
TCGGGGTGTG

>  <switch fluorescence ratio>
0.988

$$$$
>  <biopolymer_sequence>
TGGCTTGGTA

>  <switch fluorescence ratio>
1

$$$$
>  <biopolymer_sequence>
TTTGGTACAC

>  <switch fluorescence ratio>
1.01

$$$$
>  <biopolymer_sequence>
CGTAAATTGG

>  <switch fluorescence ratio>
1.02

$$$$
>  <biopolymer_sequence>
TCGGGTAAAA

>  <switch fluorescence ratio>
1.01

$$$$
>  <biopolymer_sequence>
TCGTGTTTTT

>  <switch fluorescence ratio>
1.01

$$$$
>  <biopolymer_sequence>
GGGTGTGGTA

>  <switch fluorescence ratio>
0.997

$$$$
>  <biopolymer_sequence>
TTAAGTCATT

>  <switch fluorescence ratio>
0.986

$$$$
>  <biopolymer_sequence>
TCGTGGGGTG

>  <switch fluorescence ratio>
0.999

$$$$
>  <biopolymer_sequence>
TCGCGGGAAA

>  <switch fluorescence ratio>
1.01

$$$$
>  <biopolymer_sequence>
TTTTAAATAA

>  <switch fluorescence ratio>
1.01

$$$$
>  <biopolymer_sequence>
CGTTTCAGGT

>  <switch fluorescence ratio>
0.994

$$$$
>  <biopolymer_sequence>
TATTAGATTT

>  <switch fluorescence ratio>
0.996

$$$$
>  <biopolymer_sequence>
GAGAGTATTT

>  <switch fluorescence ratio>
0.995

$$$$
>  <biopolymer_sequence>
AGCTAGAGTC

>  <switch fluorescence ratio>
1.03

$$$$
>  <biopolymer_sequence>
TGTTATGTCC

>  <switch fluorescence ratio>
1

$$$$
>  <biopolymer_sequence>
TCGAGCCCCA

>  <switch fluorescence ratio>
1.04

$$$$
>  <biopolymer_sequence>
AGGCTTAGG

>  <switch fluorescence ratio>
0.957

$$$$
>  <biopolymer_sequence>
GAAAGAAGGG

>  <switch fluorescence ratio>
1.21

$$$$
>  <biopolymer_sequence>
AAATTGTCAA

>  <switch fluorescence ratio>
1.01

$$$$
>  <biopolymer_sequence>
CGTAGTTTCG

>  <switch fluorescence ratio>
1.01

$$$$
>  <biopolymer_sequence>
GGGTAGAGGA

>  <switch fluorescence ratio>
0.99

$$$$
>  <biopolymer_sequence>
TTGCCAGATT

>  <switch fluorescence ratio>
0.994

$$$$
>  <biopolymer_sequence>
AGCCTAAGAT

>  <switch fluorescence ratio>
0.963

$$$$
>  <biopolymer_sequence>
CCTGGATTAG

>  <switch fluorescence ratio>
1.05

$$$$
>  <biopolymer_sequence>
CTGGGAAGGG

>  <switch fluorescence ratio>
0.928

$$$$
>  <biopolymer_sequence>
ATGAGGTTCA

>  <switch fluorescence ratio>
0.976

$$$$
>  <biopolymer_sequence>
TTCCTATGTG

>  <switch fluorescence ratio>
1.01

$$$$
>  <biopolymer_sequence>
AATTCCTCAG

>  <switch fluorescence ratio>
1.43

$$$$
>  <biopolymer_sequence>
TTATGCGATT

>  <switch fluorescence ratio>
1

$$$$
>  <biopolymer_sequence>
ATCGGGGTAA

>  <switch fluorescence ratio>
1.04

$$$$
>  <biopolymer_sequence>
GGTTACGGC

>  <switch fluorescence ratio>
1.07

$$$$
>  <biopolymer_sequence>
TTTTGCGATC

>  <switch fluorescence ratio>
1.14

$$$$
>  <biopolymer_sequence>
AGTTAGTGAC

>  <switch fluorescence ratio>
1.02

$$$$
>  <biopolymer_sequence>
GTCGGGGGAT

>  <switch fluorescence ratio>
1.02

$$$$
>  <biopolymer_sequence>
CCTAGGGGTT

>  <switch fluorescence ratio>
1.09

$$$$
>  <biopolymer_sequence>
ATCCTCTCGG

>  <switch fluorescence ratio>
1.05

$$$$
>  <biopolymer_sequence>
GAAAGAGTTC

>  <switch fluorescence ratio>
0.997

$$$$
>  <biopolymer_sequence>
AGGAGTAATC

>  <switch fluorescence ratio>
1.04

$$$$
>  <biopolymer_sequence>
TGGTAAAGGC

>  <switch fluorescence ratio>
0.979

$$$$
>  <biopolymer_sequence>
AAGGCTGTCT

>  <switch fluorescence ratio>
1.02

$$$$
>  <biopolymer_sequence>
CTGATCATTC

>  <switch fluorescence ratio>
1.04

$$$$
>  <biopolymer_sequence>
ATTTTGGTTG

>  <switch fluorescence ratio>
1.01

$$$$
>  <biopolymer_sequence>
TGAGAAGGGG

>  <switch fluorescence ratio>
0.991

$$$$
>  <biopolymer_sequence>
TTTGGGCTGG

>  <switch fluorescence ratio>
1.01

$$$$
>  <biopolymer_sequence>
AGATGGGTAT

>  <switch fluorescence ratio>
0.986

$$$$
>  <biopolymer_sequence>
GGAGCATGGG

>  <switch fluorescence ratio>
1.19

$$$$
>  <biopolymer_sequence>
TAACTCGAAC

>  <switch fluorescence ratio>
1.04

$$$$
>  <biopolymer_sequence>
TTTTCGGACG

>  <switch fluorescence ratio>
1.03

$$$$
>  <biopolymer_sequence>
TCTTTGGGTT

>  <switch fluorescence ratio>
1.42

$$$$
>  <biopolymer_sequence>
GCTGTTTACT

>  <switch fluorescence ratio>
1

$$$$
>  <biopolymer_sequence>
ACCTGTATTT

>  <switch fluorescence ratio>
1

$$$$
>  <biopolymer_sequence>
TATGGATCTA

>  <switch fluorescence ratio>
0.986

$$$$
>  <biopolymer_sequence>
GATTGGTAAT

>  <switch fluorescence ratio>
0.996

$$$$
>  <biopolymer_sequence>
TCTGAGGGGA

>  <switch fluorescence ratio>
1.02

$$$$
>  <biopolymer_sequence>
TGTTGTTGTA

>  <switch fluorescence ratio>
1.02

$$$$
>  <biopolymer_sequence>
ATTAGTTGGA

>  <switch fluorescence ratio>
0.99

$$$$
>  <biopolymer_sequence>
CCCCGGTTA

>  <switch fluorescence ratio>
1.46

$$$$
>  <biopolymer_sequence>
CATCTATGGT

>  <switch fluorescence ratio>
0.992

$$$$
>  <biopolymer_sequence>
TATACCGGCG

>  <switch fluorescence ratio>
1.05

$$$$
